System: Scedosporium apiospermum IHEM3817
Assay: Antifungal activity in vitro (resazurin susceptibility screen), Inf. H
Type: cell-based
Settings: Scedosporium apiospermum, IHEM3817, Scedosporium apiospermum IHEM3817; 37 °C, 48 hours, resa time 17 hours
pIC50: −log10 of the molar value.
Parameter: pIC50

CC(F)(F)c1ccc(C2=NCc3c(F)cc(F)cc3-n3cccc32)cc1F [Compound 33] | 6.19
Cc1cc(Cl)cc2c1CN=C(c1ccc(C(C)(F)F)cc1)c1cccn1-2 [Compound 16] | 4.99
CC(F)(F)c1cc(C2=NCc3c(F)cccc3-n3cccc32)ccc1F [Compound 20] | 6.24

[A] CC(F)(F)c1ccc(C2=NCc3c(Cl)cc(Cl)cc3-n3cccc32)cc1 [Compound 9]
[B] CC(F)(F)c1ccc(C2=NCc3c(Cl)cc(F)cc3-n3cccc32)cc1 [Compound 27]
Task item: Hey, between A and B which has a smaller measured pIC50? Please reply using the label of the selected record.
Reply: A
(A: 5.02, B: 6.36)

[I] CC(F)(F)c1ccc(C2=NCc3c(Cl)cc(F)cc3-n3cccc32)cc1F [Compound 31]
[II] CC(F)(F)c1cc(C2=NCc3c(Cl)cc(Cl)cc3-n3cccc32)ccc1F [Compound 25]
[III] CC(F)(F)c1cccc(C2=NCc3c(Cl)cccc3-n3cccc32)c1 [Compound 14]
Task item: Arrange the 3 compounds by rising pIC50, starting with the smallest. Show the ranking through the labels, in the order asked for.
Reply: I, III, II

[P] Cc1ccc(Cl)c2c1CN=C(c1ccc(C(C)(F)F)cc1)c1cccn1-2 [Compound 28]
[Q] CC(F)(F)c1cc(C2=NCc3c(Cl)cccc3-n3cccc32)ccc1F [Compound 21]
Task item: Would you kindly point out which of P and Q has the smaller pIC50 figure? Respond with the label that goes with your answer.
Reply: P
(P: 6.15, Q: 7.05)

[a] CC(F)(F)c1ccc(C2=NCc3cccc(Cl)c3-n3cccc32)cc1 [Compound 19]
[b] CC(F)(F)c1ccc(C2=NCc3c(F)cccc3-n3cccc32)cc1F [Compound 30]
Task item: Kindly identify the item with the lower pIC50 figure among these two: a and b When you have decided, please share the label of that item.
Reply: b
(b: 5.05, a: 5.63)

* * *

Tested on: Cryptococcus neoformans B66663
Test: Antifungal activity in vitro (resazurin susceptibility screen), Inf. F
Assay type: cell-based
Details: Cryptococcus neoformans B66663; 37 °C, 24 hours, resa time 4 hours
Procedure: The standard susceptibility screen was performed in 96-well plates (U-bottom, Greiner Bio-One). Serial dilutions (2-fold or 4-fold) of 20 mM compound stock solutions were made in 100% DMSO, followed by an intermediate dilution step in water. These serial dilutions (10 μl) were then spotted onto test-plates that could be stored in the dark at 4° C. for a maximum period of 2 weeks. An adequate broad dose-range was included with 64 μM as the highest in-test concentration. […]
Parameter: pIC50 Inf. F
// return a plain number; no unit text

CC(F)(F)c1ccc(C2NCc3c(Cl)cccc3-n3cccc32)cc1.Cl (stereo not shown) [Compound 1] | 5.30
CC(F)(F)c1ccc(C2NCc3c(Cl)cccc3-n3cccc32)cc1.Cl (stereo not shown) [Compound 3] | 5.26

Now examine the next entry.
Task item: What value of pIC50 Inf. F on Cryptococcus neoformans B66663 does CC(F)(F)c1ccc(C2NCc3cc(Cl)cc(Cl)c3-n3cccc32)cc1.Cl (stereo not shown) have?
Reply: 4.46

* * *

Test system: Rhizopus oryzae IHEM5223
Experiment: Antifungal activity in vitro (resazurin susceptibility screen), Inf. J
Format: cell-based
Details: Rhizopus arrhizus, 37 °C, 24 hours, resa time 6 hours
Method: The standard susceptibility screen was performed in 96-well plates (U-bottom, Greiner Bio-One). Serial dilutions (2-fold or 4-fold) of 20 mM compound stock solutions were made in 100% DMSO, followed by an intermediate dilution step in water. These serial dilutions (10 μl) were then spotted onto test-plates that could be stored in the dark at 4° C. for a maximum period of 2 weeks. An adequate broad dose-range was included with 64 μM as the highest in-test concentration. […]
pIC50: −log10 of the molar value.
pIC50 values for the compounds below.

Illustrative cases are given below, each with its answer.
CC(F)(F)c1ccc(C2=NCc3cc(Cl)cc(Cl)c3-n3cccc32)cc1 | < 4.19
CC(F)(F)c1ccc(C2=NCc3ccc(Cl)cc3-n3cccc32)cc1 | 5.08
CC(F)(F)c1cc(C2=NCc3c(F)cc(F)cc3-n3cccc32)ccc1F | < 4.19
CC(F)(F)c1cc(C2=NCc3c(Cl)cc(Cl)cc3-n3cccc32)ccc1F | < 4.19

API: the following record is the query input.
Task item: Entry `CC(F)(F)c1cc(C2=NCc3c(F)cccc3-n3cccc32)ccc1F` : reported pIC50 = ?
Reply: < 4.19

* * *

Tested on: Trichophyton mentagrophytes B70554
Assay: Antifungal activity in vitro (resazurin susceptibility screen), Inf. G
Assay type: cell-based
Details: Trichophyton mentagrophytes, B70554, Trichophyton mentagrophytes B70554; 27 °C, 7 days, resa time 24 hours
Procedure: The standard susceptibility screen was performed in 96-well plates (U-bottom, Greiner Bio-One). Serial dilutions (2-fold or 4-fold) of 20 mM compound stock solutions were made in 100% DMSO, followed by an intermediate dilution step in water. These serial dilutions (10 μl) were then spotted onto test-plates that could be stored in the dark at 4° C. for a maximum period of 2 weeks. An adequate broad dose-range was included with 64 μM as the highest in-test concentration. […]
pIC50: −log10 of the molar value.
Parameter: pIC50

Would you please look over these solved cases?
CC(F)(F)c1cc(C2=NCc3c(Cl)cc(Cl)cc3-n3cccc32)ccc1F | 5.66
CC(F)(F)c1ccc(C2=NCc3cccc(Cl)c3-n3cccc32)cc1 | 6.19
CC(F)(F)c1ccc(C2=NCc3c(Cl)ccc(Cl)c3-n3cccc32)cc1 | 4.22
CC(F)(F)c1ccc(C2=NCc3c(Cl)cc(Cl)cc3-n3cccc32)cc1 | 4.89
CC(F)(F)c1cc(C2=NCc3c(F)cc(F)cc3-n3cccc32)ccc1F | 6.10
CC(F)(F)c1ccc(C2=NCc3c(Cl)cc(F)cc3-n3cccc32)cc1F | 5.90

[a] CC(F)(F)c1ccc(C2=NCc3c(F)cc(F)cc3-n3cccc32)cc1
[b] CC(F)(F)c1cc(C2=NCc3c(Cl)cccc3-n3cccc32)ccc1F
Task item: // max by pIC50 over [ a , b ] The response must carry the label of the picked entry.
Reply: b
(b: 6.16, a: 5.96)

[1] CC(F)(F)c1cc(C2=NCc3c(F)cccc3-n3cccc32)ccc1F
[2] CC(F)(F)c1ccc(C2=NCc3c(Cl)cccc3-n3cccc32)cc1F
Task item: When their pIC50 values are compared, which is larger, 1 or 2 ? // caller expects the label of the chosen entry
Reply: 2
(2: 6.72, 1: 6.10)

* * *

Readings of semi-quantitative lesion score (mean) for the listed molecules
System: Microsporum canis (strain B68128)
Assay: Test D.4.1: activity against M. canis in guinea-pigs after oral treatment for 7 consecutive days
Assay type: in vivo
Parameters: key: lesion score 0–3.5 by severity and size of lesion
Settings: oral 10 mg/kg once daily for 7 days; 17 DPI
Hey, just send me the number, nothing else.

Some molecules with known semi-quantitative lesion score (mean) results, for comparison:
CCC(C)n1ncn(-c2ccc(N3CCN(c4ccc(OCC5COC(Cn6cncn6)(c6ccc(Cl)cc6Cl)O5)cc4)CC3)cc2)c1=O (stereo not shown) [Itraconazole, reference compound] | 0
CN(C/C=C/C#CC(C)(C)C)Cc1cccc2ccccc12 [Terbinafine, reference compound] | 0.50
CC(F)(F)c1ccc(C2=NCc3c(Cl)cccc3-n3cccc32)cc1 [Compound 4] | 0.50

Attention now turns to another entry.
Task item: Find the measured semi-quantitative lesion score (mean): item CC(F)(F)c1cccc(C2=NCc3c(Cl)cccc3-n3cccc32)c1 [Compound 14] , target or system Microsporum canis (strain B68128).
Reply: 1.67

* * *

Tested on: Trichophyton rubrum B68183
Test: Antifungal activity in vitro (resazurin susceptibility screen), Inf. C
Format: cell-based
Settings: Trichophyton rubrum, B68183, Trichophyton rubrum B68183; 27 °C, 7 days, resa time 24 hours
Parameter: IC50 (nM)

Observe how each entry below is paired with its result.
CC(F)(F)c1ccc(C2=NCc3c(Cl)cc(F)cc3-n3cccc32)cc1F | 468
Cc1cc(Cl)cc2c1CN=C(c1ccc(C(C)(F)F)cc1)c1cccn1-2 | 617
CC(F)(F)c1cc(C2=NCc3ccc(Cl)cc3-n3cccc32)ccc1F | 7940
CC(F)(F)c1ccc(C2=NCc3cc(Cl)cc(Cl)c3-n3cccc32)cc1 | 5890
CC(F)(F)c1ccc(C2=NCc3c(Cl)cc(F)cc3-n3cccc32)cc1 | 288
CC(F)(F)c1ccc(C2=NCc3c(Cl)cc(Cl)cc3-n3cccc32)cc1 | 1000
CC(F)(F)c1ccc(C2=NCc3c(F)cccc3-n3cccc32)cc1F | 162

[a] CC(F)(F)c1cc(C2=NCc3cccc(Cl)c3-n3cccc32)ccc1F
[b] CC(F)(F)c1ccc(C2=NCc3c(F)cc(F)cc3-n3cccc32)cc1F
Task item: Returns: the argument ( a or b ) having the larger IC50. Write down the label of the entry you select.
Reply: b
(b: 724 nM, a: 302 nM)
